Cited source for all entries: the supplement of paper PMC9732359

assay: protein stability index of a GFP-peptide fusion (yeast GPS) (PSI 1-4); higher = more stable; sorted into four equal gates, so the index is relative within each strain; details: pdr5∆
Kindly return Criterion met if reported protein stability index is no lower than 3; return Criterion not met if it is lower.

Solved entries (count: 3):
{"BIOPOLYMER_SEQUENCE": "SKEVRGSKIRVMWGKVT [RPL33A]", "CLASSIFICATION": "Criterion not met"}
{"BIOPOLYMER_SEQUENCE": "TRAKAKVEEMNNIIAAS [RPL36A]", "CLASSIFICATION": "Criterion met"}
{"BIOPOLYMER_SEQUENCE": "QRDFRKHGAVHMSTYLK [RPL21B]", "CLASSIFICATION": "Criterion not met"}

Could you verify whether the entry PRQLHNTHWGLVCPAET [RPB2] shows protein stability index of no less than 3?
Criterion not met
